Each record here notes measured Kd.
Target: T1, soluble form of human IL-3Rα protein (extracellular region with C-terminal FLAG tag) (human, UniProt P26951 19-305)
T1 construct: Made in CHOras1 cells, purified on anti-FLAG gel; also called soluble form of IL-3Rα protein; soluble form of human IL-3Rα extracellular region
T1 sequence: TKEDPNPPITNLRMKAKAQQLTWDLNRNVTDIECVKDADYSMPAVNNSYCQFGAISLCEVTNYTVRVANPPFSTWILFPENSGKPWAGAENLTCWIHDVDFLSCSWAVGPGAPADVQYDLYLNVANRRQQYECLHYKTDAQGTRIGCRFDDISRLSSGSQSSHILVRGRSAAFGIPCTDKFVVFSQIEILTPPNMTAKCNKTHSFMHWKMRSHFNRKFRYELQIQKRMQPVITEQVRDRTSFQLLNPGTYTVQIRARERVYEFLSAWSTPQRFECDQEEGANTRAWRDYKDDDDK
Assay: SPR (Biacore 2000): antibody captured on anti-human antibody CM5 chip, soluble IL-3Rα as analyte, 1:1 Langmuir fit
Expressed in nM, but write only the number.

Consider the worked cases shown below.
chimeric 7G3 antibody (mouse 7G3 variable regions, human IgG1 constant region) (antibody, V domains shown, also called 7G3 (Chimeric antibody)) VH: EVQLQQSGPELVKPGASVKMSCKASGYTFTDYYMKWVKQSHGKSLEWIGDIIPSNGATFYNQKFKGKATLTVDRSSSTAYMHLNSLTSEDSAVYYCTRSHLLRASWFAYWGQGTLVTVSA VL: DFVMTQSPSSLTVTAGEKVTMSCKSSQSLLNSGNQKNYLTWYLQKPGQPPKLLIYWASTRESGVPDRFTGSGSGTDFTLTISSVQAEDLAVYYCQNDYSYPYTFGGGTKLEIK :: 1.88
Old19 anti-human IL-3Rα human antibody (antibody, human IgG1, V domains shown, Human antibody; recombinant form in N5KG1-Val Lark vector (human IgG1, kappa)) VH: QVQLVQSGAEVKKPGSSVKVSCKASGGTFSSYAISWVRQAPGQGLEWVGGIIPIFGTANYAQKFQGRVTITADESTSTAYMELSSLRSEDTAVYYCARGHKYGPYYFDYWGQGTLVTVSS VL: DIQMTQSPSSLSASVGDRVTITCRASQGISSWLAWYQQKPEKAPKSLIYAASSLQSGVPSRFSGSGSGTDFTLTISSLQPEDFATYYCQQYNSYPRTFGQGTKVEIK :: 3.24
Old6 anti-human IL-3Rα human antibody (antibody, human IgG1, V domains shown, Human antibody) VH: EVQLVESGGGLVKPGGSLRLSCAASGFTFSSHNMNWVRQAPGKGLEWVSSISSSSSYIYYADSVKGRFTISRDNAKNSLYLQMNSLRAEDTAVYYCAREDWGYFDYWGQGTLVTVSS VL: AIQLTQSPSSLSASVGDRVTITCRASQGISSDLAWYQQKPGKAPKLLIYDASSLESGVPSRFSGSGSGTDFTLTISSLQPEDFATYYCQQFNSYPFTFGPGTKVDIK :: 1.26
Old17 anti-human IL-3Rα human antibody (antibody, human IgG1, V domains shown, Human antibody; recombinant form in N5KG1-Val Lark vector (human IgG1, kappa)) VH: QVQLVQSGAEVKKPGSSVKVSCKTSGGTFSNFAISWVRQAPGQGLEWMGGIIPIFGSTNYAQKFQGRVTINADESTSTAYMELSSLRSEDTAVYYCAGGDKYGPYYFHYWGQGTLVTVSS VL: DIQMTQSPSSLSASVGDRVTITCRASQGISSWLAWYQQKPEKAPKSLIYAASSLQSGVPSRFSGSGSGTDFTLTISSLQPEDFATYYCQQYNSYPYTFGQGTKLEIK :: 1.43

Now for the binder whose Kd we want.
# return recorded Kd for entry New102 anti-human IL-3Rα human antibody (antibody, human IgG1, V domains shown, Human antibody; recombinant form in N5KG1-Val Lark vector (human IgG1, kappa)) VH: QVQLVQSGAEVKKPGSSVKVSCMASGGTVSSYAISWVRQAPGQGLEWMGEIIPIFGIVNYAQKFQGRVTITADESTNTAYMELSSLRSEDTAIYYCARETAVAGILGYWGQGTLVTVSS VL: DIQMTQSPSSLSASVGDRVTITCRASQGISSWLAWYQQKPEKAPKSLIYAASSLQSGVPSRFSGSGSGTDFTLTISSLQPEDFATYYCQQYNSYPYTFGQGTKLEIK
0.798
